- Tested on: human rhabdosarcoma cells
- ASSAY_DETAILS: p53 quantification, same procedure, rhabdosarcoma cells
- Format: cell-based
- Parameters: unit not given here
- SETTINGS: Table 9, in association with SiRNA Integrin alpha 3+RGDSPC+SiRNA Integrin beta 1+SiRNA Syndecan 1 (SEQ ID NO: 31, 32, 164 to 187)
Criterion: P53 strictly less than 40. Met: 1.0. Not met: 0.0.

* GTPGPAPTKLSAISMLYLDSSNNVILKKYR (Non-cyclic GFR-binding peptide) [SEQ ID NO: 166] | 1.0
* GTPGPKASSVPTELSPISTLYKDENEKVVLKYHYDM (Non-cyclic GFR-binding peptide) [SEQ ID NO: 168] | 0.0
* GTPGPPSSAPTQLSATSVLYYDDSSNVILRKHRMIVKS (Non-cyclic GFR-binding peptide) [SEQ ID NO: 164] | 0.0
* GTPGPAPTKLSAISMLYLDSSNNVILRKHR (Non-cyclic GFR-binding peptide) [SEQ ID NO: 165] | 0.0
* CTVPKPSSAPTQLSPISILYIDAANNVVYKQYEDMVVRA (Non-cyclic GFR-binding peptide) [SEQ ID NO: 187] | 0.0

Given the entry WWFWGASSAVSQELSAISMLYLGGGLKNYQDMQHN (Non-cyclic GFR-binding peptide) [SEQ ID NO: 171] , would its reported P53 be below 40? 0.0

Note, next up: GTPGPRNVQCRPTQVQLSAISTLYLAAALKNYQTLE (Non-cyclic GFR-binding peptide) [SEQ ID NO: 173] 1.0

Note, next up: CVPTEESNITMQIMRIKPHQGQHIGEMSFL (Non-cyclic GFR-binding peptide) [SEQ ID NO: 177] 0.0

Note, next up: CVPQRLSPISILYIDAANNVVYKQYE (Non-cyclic GFR-binding peptide) [SEQ ID NO: 186] 1.0

Note, next up: CVPTEERSVKVAKVRIKPHQGQHKEVQV (Non-cyclic GFR-binding peptide) [SEQ ID NO: 176] 1.0

Note, next up: CAAPASSSVPARLSPISLLYIDAANNVVYKQYEDM (Non-cyclic GFR-binding peptide) [SEQ ID NO: 183] 0.0

###

sequences and their reported pRB
- Tested on: human rhabdosarcoma cells
- ASSAY_DETAILS: pRB quantification, same procedure, rhabdosarcoma cells
- Format: cell-based
- SETTINGS: Table 9, in association with SiRNA Integrin alpha 3+RGDSPC+SiRNA Integrin beta 1+SiRNA Syndecan 1 (SEQ ID NO: 31, 32, 164 to 187)
Just the number, please, no unit after it.

- CASAAPSSVPQALEPLPIVYYVGRTPKVEQLSNMIVRSSK (Non-cyclic GFR-binding peptide) [SEQ ID NO: 175]: 7
- CVPQRLSPISILYIDAANNVVYKQYE (Non-cyclic GFR-binding peptide) [SEQ ID NO: 186]: 12
- WWFWGASSAVSQELSAISMLYLGGGLKNYQDMQHN (Non-cyclic GFR-binding peptide) [SEQ ID NO: 171]: 8

# lookup: pRB of GTPGPKASSVPTELSPISTLYKDENEKVVLKYHYDM (Non-cyclic GFR-binding peptide) [SEQ ID NO: 168] 13

###

- System: human rhabdosarcoma cells
- ASSAY_DETAILS: p53 quantification, same procedure, rhabdosarcoma cells
- Assay type: cell-based
- Parameters: unit not given here
- SETTINGS: Table 9, in association with SiRNA Integrin alpha 3+RGDSPC+SiRNA Integrin beta 1+SiRNA Syndecan 1 (SEQ ID NO: 31, 32, 164 to 187)
sequences and their reported P53
Just the number, please, no unit after it.

• GTPGPRNVQCRPTQVQLSAISTLYLEIVRKKPLKNYQTLEDH (Non-cyclic GFR-binding peptide) [SEQ ID NO: 172] = 33
• GTPGPASSAVSQELSAISMLYLGGGLKNYQDM (Non-cyclic GFR-binding peptide) [SEQ ID NO: 32] = 46
• GTPGPPKPSSAPTQLNAISMLYFGGGGGLKKYRDMQHN (Non-cyclic GFR-binding peptide) [SEQ ID NO: 169] = 37

Now look at this one.
# lookup: P53 of CAAAPASSSVPARLSPISILYIAAAYKQYEDM (Non-cyclic GFR-binding peptide) [SEQ ID NO: 185] 47
